Documented melting point across a set of compounds
State the answer as a number, implicitly in °C.

1. N#Cc1ccc(Oc2cc(Cl)cc(Cl)c2)c(S(=O)(=O)N2CCC(N3CCC[C@H]3CO)CC2)c1 :: 124

Recall and state the measured melting point for CN(C)CC(NS(=O)(=O)c1cc(C#N)ccc1Oc1cc(Cl)cc(Cl)c1)C(=O)O (stereo not shown) .
190

Report melting point for O=[N+]([O-])c1ccc(Sc2cc(Cl)cc(Cl)c2)c(S(=O)(=O)N[C@H]2CN3CCC2CC3)c1 (stereo in doubt)
256

---

Below, each entry is listed with its recorded melting point.

1) N#Cc1ccc(Oc2cc(Cl)cc(Cl)c2)c(S(=O)(=O)N2CCC(N3CCCC3)C(CN3C(=O)CCC3=O)C2)c1 (stereo not drawn) :: 121 °C
2) N#Cc1ccc(Oc2cc(Cl)cc(Cl)c2)c(S(=O)(=O)N[C@@H]2CC3OC3C[C@@H]2N)c1 (stereo partly drawn) :: 165 to 182 °C (dec.)

Now consider a different compound.
State its melting point for this compound: Cl.N#Cc1ccc(Oc2cc(Cl)cc(Cl)c2)c(S(=O)(=O)C2CCNCC2)c1
220 to 226 °C (dec.)

---

# SYSTEM_TESTED: Human CCR3 (Homo sapiens, UniProt P51677)
# Construct: The cloned CCR3 cDNA was constructed with pcDNA3 vector and transfected into a K562 cell line; expressed in transfected cells
# Sequence (P51677 whole entry): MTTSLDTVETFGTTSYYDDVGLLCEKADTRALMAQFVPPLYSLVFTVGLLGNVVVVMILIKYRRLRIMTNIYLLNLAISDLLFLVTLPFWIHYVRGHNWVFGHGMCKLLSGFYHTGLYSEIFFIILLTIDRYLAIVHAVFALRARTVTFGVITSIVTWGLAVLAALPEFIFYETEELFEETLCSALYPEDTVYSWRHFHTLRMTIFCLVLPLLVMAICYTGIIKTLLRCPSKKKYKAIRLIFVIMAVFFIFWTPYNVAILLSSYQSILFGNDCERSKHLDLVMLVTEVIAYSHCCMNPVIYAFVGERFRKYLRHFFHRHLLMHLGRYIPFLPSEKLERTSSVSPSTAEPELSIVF
# ASSAY_REMARKS: Receptor binding assay (RBA), [125I]-eotaxin on human CCR3-transformed K562 cells
# CONDITION_CONTEXT: compounds of about 40 to 90% purity, read-out: Activity grade CCR3
pIC50: −log10 of the molar value. Where a name gives a salt, the structure may show the parent alone.
QUANTITY_MEASURED: pIC50

Here is how some molecules turned out for pIC50.
1) N#Cc1ccc(Oc2cc(Cl)cc(Cl)c2)c(S(=O)(=O)N2CCNCC2Cn2cncn2)c1 (centres unmarked) [Example 1-4, hydrochloride] :: > 7.00
2) CS(=O)(=O)NCC1CNCCN1S(=O)(=O)c1cc(C#N)ccc1Oc1cc(Cl)cc(Cl)c1 (centres unmarked) :: > 7.00
3) CCN1CCCN(S(=O)(=O)c2cc(C#N)ccc2Oc2cc(Cl)cc(Cl)c2)C(C(=O)OC)C1 (centres unmarked) :: 6.30 to 7.00

Supply pIC50 measured with Human CCR3 (Homo sapiens, UniProt P51677) for CN(C)CCN(CCN1C(=O)CCC1=O)S(=O)(=O)c1cc(C#N)ccc1Oc1cc(Cl)cc(Cl)c1 .
> 7.00

Fill: pIC50 (Human CCR3 (Homo sapiens, UniProt P51677)) for this molecule N#Cc1ccc(Oc2cc(Cl)cc(Cl)c2)c(S(=O)(=O)N2CC[C@H](NCCO)C2)c1
> 7.00

Give pIC50 for COC(=O)[C@@H]1C[C@H](N2CCCC2)CN1S(=O)(=O)c1cc(C#N)ccc1Oc1cc(Cl)cc(Cl)c1 tested on Human CCR3 (Homo sapiens, UniProt P51677).
6.30 to 7.00

---

Each entry below carries its reported melting point.

1) CS(=O)(=O)NCC1CNCCCN1S(=O)(=O)c1cc(C#N)ccc1Oc1cc(Cl)cc(Cl)c1.Cl (stereo not shown) :: 183 to 184 °C

Give a short answer stating reported melting point for N#Cc1ccc(Oc2cc(Cl)cc(Cl)c2)c(S(=O)(=O)N2CCNC[C@@H]2Cc2c[nH]c3ccccc23)c1 .
116 to 117 °C

State its melting point for this compound: N#Cc1ccc(Oc2cc(Cl)cc(Cl)c2)c(S(=O)(=O)N2CCC[C@H]2CN2CCC[C@H]2CO)c1
157 °C

Look up and state reported melting point for N#Cc1ccc(Oc2cc(Cl)cc(Cl)c2)c(S(=O)(=O)N2CC[C@H](N(CCO)CCO)C2)c1
153 to 154 °C

Give recorded melting point. N#Cc1ccc(Oc2cc(Cl)cc(Cl)c2)c(S(=O)(=O)N2CCC(N3C[C@H](O)[C@@H](O)C3)CC2)c1
137 to 139 °C

Assign melting point to the following record: CC(=O)c1ccc(Oc2cc(Cl)cc(Cl)c2)c(S(=O)(=O)N2CCNCC2)c1
169 to 170 °C

Query melting point for CC(C)(O)[C@@H]1CCCN1C1CCN(S(=O)(=O)c2cc(C#N)ccc2Oc2cc(Cl)cc(Cl)c2)CC1
103 °C
